In this section, each of the variants is paired with its reported protein stability index.
B1: CLINT1 (parent)
chain: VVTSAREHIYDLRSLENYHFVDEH

- Variants of: B1
- Protocol Notes: protein stability index of a GFP-peptide fusion (GPS, HEK-293T) (PSI 1-6); higher = more stable;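 further: lentivirally expressed fusions sorted by FACS into six bins by GFP to DsRed ratio, PSI derived from sequencing read proportions per bin multiplied by bin number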
- Test Settings: c terminus: a fixed tail appended
Outcome Measure: protein stability index

Residue Sequence	Numeric Result
VVTSAREHIYDLRSLENYHFVIEH	1.09
VVTSAREHTYDLRSLENYHFVDEH	3.31
VVTSAREHIYDLRSYENYHFVDEH	2.91
VVTKAREHIYDLRSLENYHFVDEH	2.52
VVTSAREHIYDLRSLRNYHFVDEH	2.43
VVTSSREHIYDLRSLENYHFVDEH	3.15
VVTSAFEHIYDLRSLENYHFVDEH	1.55
VVTSAREHEYDLRSLENYHFVDEH	3.62
VVTSAREHIYALRSLENYHFVDEH	2.79
VVTSAREHIQDLRSLENYHFVDEH	3.75
VVTSAREHIYDLQSLENYHFVDEH	3.06
VVTSARWHIYDLRSLENYHFVDEH	2.44
VVTSAREHIYDLRSLENYHFYDEH	2.47
VVTSAREHIYDLISLENYHFVDEH	2.49
VVTSAPEHIYDLRSLENYHFVDEH	3.08
VVTSAREAIYDLRSLENYHFVDEH	2.52
VDTSAREHIYDLRSLENYHFVDEH	4.26
VVASAREHIYDLRSLENYHFVDEH	2.62
VVTSAREHIYDLRSLENYHFQDEH	3.25
VVTSAREHKYDLRSLENYHFVDEH	3.48
VVTPAREHIYDLRSLENYHFVDEH	3.4
VVTSAREHIYDLRSLENYHFVGEH	2.85
